Values compiled from patent US20210388087A1.

# maps each entry to its fold change of affinity
Molecular target: T1, Human CD3eg linker (human)
T1 construct: Single chain: epsilon and gamma subunits of human CD3 joined by a 29-mer linker, Flag-tag at the C-terminus; also called recombinant human CD3
T1 chain: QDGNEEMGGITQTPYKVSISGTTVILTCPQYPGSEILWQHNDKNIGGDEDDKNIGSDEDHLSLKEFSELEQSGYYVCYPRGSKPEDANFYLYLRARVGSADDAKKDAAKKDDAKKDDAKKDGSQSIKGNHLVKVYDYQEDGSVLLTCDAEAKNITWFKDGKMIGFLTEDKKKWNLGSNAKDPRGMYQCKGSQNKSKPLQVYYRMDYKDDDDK
Experiment: Biacore SPR, vs template H183/L072
Reply numerically in fold, unit not repeated.

INSERT INTO assay_data (binder, measure_unit, recorded_value) VALUES
  ('H183/L072 VH S30R (antibody, name in Kabat numbering, V domains shown) VH: QVQLVESGGGLVQPGRSLRLSCAASGFTFRNAWMHWVRQAPGKGLEWVAQIKDKGNAYAAYYAPSVKGRFTISRDDSKNSIYLQMNSLKTEDTAVYYCHYVHYASASTVLPAFGVDAWGQGTTVTVSS VL: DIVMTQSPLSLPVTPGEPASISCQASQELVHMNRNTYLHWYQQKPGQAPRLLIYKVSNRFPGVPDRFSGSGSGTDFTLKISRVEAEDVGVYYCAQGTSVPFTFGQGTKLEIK', 'fold', 0.8);

q: Please give the measured fold change of affinity for this binder: H183/L072 VH M34A (antibody, name in Kabat numbering, V domains shown) VH: QVQLVESGGGLVQPGRSLRLSCAASGFTFSNAWAHWVRQAPGKGLEWVAQIKDKGNAYAAYYAPSVKGRFTISRDDSKNSIYLQMNSLKTEDTAVYYCHYVHYASASTVLPAFGVDAWGQGTTVTVSS VL: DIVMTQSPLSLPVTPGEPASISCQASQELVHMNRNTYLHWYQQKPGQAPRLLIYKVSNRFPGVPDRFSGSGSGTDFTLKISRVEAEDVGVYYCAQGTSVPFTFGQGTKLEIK
a: 0
